Biological target: human α1D‐adrenoceptor (full length) (Homo sapiens, UniProt P25100)
Construct: human α1D‐adrenoceptor (full length) were used; expressed in transfected cells; host or cells: CHO-K1
Sequence (P25100 1-572): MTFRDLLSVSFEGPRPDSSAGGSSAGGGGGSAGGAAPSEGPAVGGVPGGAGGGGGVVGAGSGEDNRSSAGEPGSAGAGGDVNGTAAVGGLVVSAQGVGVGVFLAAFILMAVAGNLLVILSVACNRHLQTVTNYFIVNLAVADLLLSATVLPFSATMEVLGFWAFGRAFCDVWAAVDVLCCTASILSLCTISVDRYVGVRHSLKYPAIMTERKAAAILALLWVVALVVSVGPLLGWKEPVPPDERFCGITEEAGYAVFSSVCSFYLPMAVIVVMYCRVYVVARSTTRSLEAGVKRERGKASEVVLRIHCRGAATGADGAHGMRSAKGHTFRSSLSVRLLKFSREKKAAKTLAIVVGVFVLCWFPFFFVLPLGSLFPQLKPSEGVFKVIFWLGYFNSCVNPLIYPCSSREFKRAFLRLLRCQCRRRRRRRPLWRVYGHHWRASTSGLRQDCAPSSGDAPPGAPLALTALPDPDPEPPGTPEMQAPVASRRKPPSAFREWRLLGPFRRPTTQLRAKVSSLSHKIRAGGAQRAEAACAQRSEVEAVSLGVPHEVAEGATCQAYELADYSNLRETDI
Experiment: Intracellular free calcium mobilization, CHO‐α1D cells
Type: cell-based
pEC50: −log10 of the molar value.

# compound, measuredTarget, pEC50
data = [
    ("C=CCc1ccccc1OC(C)C1=NCCN1 (stereo not shown)", "human α1D‐adrenoceptor (full length) (Homo sapiens, UniProt P25100)", 6.50),
]

// provenance: paper PMC8343220
